Listed sequences paired with reported PBM binding z-score
# Tested on: PXR:RXRa (NR concentration 270 nM, RXRa partner concentration 90 nM)
# TEST: PBM binding z-score (relative to random genomic background probes); higher = stronger binding; sequences stand for … in GC…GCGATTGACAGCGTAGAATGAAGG
Could you keep your reply to the number by itself?

sequence CCTGCTAGGTAAATGGTCAGCTAAAGCAGCTCGC , PBM binding z-score observed: -0.268

---

# Test system: FXR:RXRa (NR concentration 270 nM, RXRa partner concentration 90 nM)
# TEST: PBM binding z-score (relative to random genomic background probes); higher = stronger binding; sequences stand for … in GC…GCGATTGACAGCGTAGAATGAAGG
Each entry gets Condition not met if its PBM binding z-score stays under 3, and Condition met if its PBM binding z-score is 3 or above.

Solved cases (4 shown):
{"columns": ["MONOMER SEQUENCE", "CATEGORY"],
 "data": [
  ["TTGCCTAGGTCATTCAGGGGCCAGTATAGAAAGC", "Condition met"],
  ["TCTGCTAGGTCAACGATGGTCAGCTCATCTGCTA", "Condition met"],
  ["ATATGTAGGTTAAGGGTCATACAGGTTGGTTCGC", "Condition met"],
  ["ATCTCTAGGTAAAGCTCAGTGAAAGATCGATAGA", "Condition not met"]
]}

Prompt line: Hi team, for GCGACTGGGTCAAAGCAGGTTACCATAAGGTTGG , is the recorded PBM binding z-score at or above 3?
Response line: Condition met

Prompt line: Hi team, for ATATGTAGGTTAGCTGGGGTCATTTAGACTAGGC , is the recorded PBM binding z-score at or above 3?
Response line: Condition met

Prompt line: Hi team, for CTCAAAAGGTCGGTTGAGGTGAGTATACGGATAA , is the recorded PBM binding z-score at or above 3?
Response line: Condition not met

Prompt line: Hi team, for TCGACTAGGTTAGTCGGGGCATTCAGCCAACATA , is the recorded PBM binding z-score at or above 3?
Response line: Condition not met

Prompt line: Hi team, for CCTTGGAGGACAACAGGAGGTCAGAGCTGCCAGA , is the recorded PBM binding z-score at or above 3?
Response line: Condition not met

Prompt line: Hi team, for TCATATAGGTAAATGCTAGGGGAAAGTCCGATCT , is the recorded PBM binding z-score at or above 3?
Response line: Condition not met

Prompt line: Hi team, for AATACAGGGTCACTAGGGCAGAGTAGGTACGAAT , is the recorded PBM binding z-score at or above 3?
Response line: Condition met

Prompt line: Hi team, for CTCGAAAGGTCGGTTGAGGTGAGTATGCGGATAA , is the recorded PBM binding z-score at or above 3?
Response line: Condition not met
